Data origin: ChEMBL document CHEMBL2417405

The next entries give measured pKi for UniProtKB P00489.
Sequence (P00489 whole entry): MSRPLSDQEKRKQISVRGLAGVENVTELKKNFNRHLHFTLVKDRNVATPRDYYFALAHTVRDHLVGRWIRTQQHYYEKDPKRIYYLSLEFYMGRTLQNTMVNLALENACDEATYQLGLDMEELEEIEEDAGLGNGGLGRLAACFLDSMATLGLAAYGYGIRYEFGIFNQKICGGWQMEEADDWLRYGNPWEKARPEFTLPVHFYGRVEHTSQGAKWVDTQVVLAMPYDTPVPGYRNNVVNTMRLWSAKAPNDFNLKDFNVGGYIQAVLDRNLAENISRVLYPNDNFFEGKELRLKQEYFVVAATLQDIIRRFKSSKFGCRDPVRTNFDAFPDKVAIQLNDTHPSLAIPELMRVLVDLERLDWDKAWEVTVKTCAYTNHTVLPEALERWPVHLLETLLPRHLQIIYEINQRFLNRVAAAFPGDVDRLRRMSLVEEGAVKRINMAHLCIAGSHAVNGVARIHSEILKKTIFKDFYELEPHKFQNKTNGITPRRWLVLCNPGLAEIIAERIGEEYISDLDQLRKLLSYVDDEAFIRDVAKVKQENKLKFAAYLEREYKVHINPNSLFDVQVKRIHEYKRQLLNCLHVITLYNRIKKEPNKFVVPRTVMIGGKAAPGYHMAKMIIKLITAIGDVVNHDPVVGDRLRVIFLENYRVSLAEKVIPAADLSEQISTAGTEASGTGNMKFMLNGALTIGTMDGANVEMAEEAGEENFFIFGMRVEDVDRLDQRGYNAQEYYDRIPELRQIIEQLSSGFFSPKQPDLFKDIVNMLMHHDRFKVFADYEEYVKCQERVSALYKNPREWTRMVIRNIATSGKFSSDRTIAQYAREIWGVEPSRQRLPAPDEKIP
pKi is a log-scale quantity: -log10 of the concentration expressed in molar.

In the examples that follow, each entry is paired with its recorded pKi.
1. O=C(N[C@@H]1O[C@H](CO)[C@@H](O)[C@H](O)[C@H]1O)c1nnc(-c2cccc3ccccc23)o1
3.76
2. O=C(N[C@@H]1O[C@H](CO)[C@@H](O)[C@H](O)[C@H]1O)c1noc(-c2ccccc2)n1
3.87
3. O=C(N[C@@H]1O[C@H](CO)[C@@H](O)[C@H](O)[C@H]1O)c1nc(-c2ccccc2)no1
3.98

## Task Quick one: pKi of O=C(N[C@@H]1O[C@H](CO)[C@@H](O)[C@H](O)[C@H]1O)c1noc(-c2cccc3ccccc23)n1 ?
## Result 4.48
